Below, each of the compounds is paired with its reported half-life value.
test: Half life in mouse microsomes by LC-MS/MS analysis; assay type: ADME, Microsome

Worked cases, half-life given:
| compound | half-life |
| --- | --- |
| COc1cc(NC(C)CCCNC(=O)OC(C)(C)C)c2nc(C(F)(F)F)cc(C)c2c1-c1cccc(C(F)(F)F)c1 (centres undefined) | 18 min |
| COc1cc(NC(C)CCCN)c2nc(C(F)(F)F)cc(C)c2c1-c1cccc(C(F)(F)F)c1.O=C(O)CCC(=O)O (centres undefined) | > 60 min |
| COc1cc(NC(C)CCCNC(=O)OC(C)(C)C)c2nc(C(F)(F)F)cc(C)c2c1-c1ccc(C(F)(F)F)cc1 (centres undefined) | 16 min |
| COc1cc(NC(C)CCCN)c2ncccc2c1 (centres undefined) [PRIMAQUINE] | 21 min |
| COc1cc(C)c2c(Oc3cccc(C(F)(F)F)c3)c(OC)cc(NC(C)CCCN)c2n1 (centres undefined) [TAFENOQUINE] | > 60 min |

Turning now to a further record.
Look up and state reported half-life for COc1cc(C)c2c(-c3ccc(C(F)(F)F)cc3)c(OC)cc(NC(C)CCCN)c2n1.O=C(O)CCC(=O)O (centres undefined)
> 60 min

---

system: Plasmodium berghei; test: Prophylactic antimalarial activity against Plasmodium berghei infected Exoerythrocytic mouse model; format: functional
attribute.measured: MAC

Use these answered entries as a reference point.
| compound | value.observed |
| --- | --- |
| COc1cc(NC(C)CCCNC(=O)OC(C)(C)C)c2nc(C(F)(F)F)cc(C)c2c1-c1cccc(C(F)(F)F)c1 (stereo not drawn) | >960 mg/kg/day |
| COc1cc(NC(C)CCCNC(=O)OC(C)(C)C)c2nc(C(F)(F)F)cc(C)c2c1-c1ccc(C(F)(F)F)cc1 (stereo not drawn) | >960 mg/kg/day |
| COc1cc(NC(C)CCCNC(=O)OC(C)(C)C)c2nc(C(F)(F)F)cc(C)c2c1-c1cccc(C)c1 (stereo not drawn) | >960 mg/kg/day |
| COc1cc(NC(C)CCCN)c2ncccc2c1 (stereo not drawn) [PRIMAQUINE] | 60 mg/kg/day |

Report the value of MAC obtained on Plasmodium berghei for COc1cc(C)c2c(-c3ccc(C(F)(F)F)cc3)c(OC)cc(NC(C)CCCN)c2n1.O=C(O)CCC(=O)O (stereo not drawn) .
>480 mg/kg/day

Look up and report measured MAC (Plasmodium berghei) for the following compound: COc1cc(C)c2c(-c3cccc(C)c3)c(OC)cc(NC(C)CCCN)c2n1.O=C(O)CCC(=O)O (stereo not drawn)
960 mg/kg/day

Report measured MAC on Plasmodium berghei; entry: COc1cc(C)c2c(Oc3cccc(C(F)(F)F)c3)c(OC)cc(NC(C)CCCN)c2n1 (stereo not drawn) [TAFENOQUINE]
7.5 mg/kg/day

Provide MAC, recorded with Plasmodium berghei, of COc1cc(C)c2c(-c3ccc(Cl)c(Cl)c3)c(OC)cc(NC(C)CCCN)c2n1.O=C(O)CCC(=O)O (stereo not drawn)
>480 mg/kg/day

---

test: Therapeutic index, ratio of IC50 for mouse RAW264.7 cells to IC50 for mefloquine-resistant Plasmodium falciparum CDC Sierra Leone 1 D6; format: cell-based; conditions: read-out: TI
attribute.measured: selectivity ratio
Output: the number by itself.

The following compounds have reported results that may help.
| compound | selectivity ratio |
| --- | --- |
| COc1cccc(-c2c(OC)cc(NC(C)CCCN)c3nc(OC)cc(C)c23)c1.O=C(O)CCC(=O)O (centres undefined) | 1.11 |
| COc1cc(NC(C)CCCN)c2nc(C(F)(F)F)cc(C)c2c1-c1ccc(C(F)(F)F)cc1.O=C(O)CCC(=O)O (centres undefined) | 5.94 |
| COc1cc(C)c2c(-c3ccc(C(F)(F)F)cc3)c(OC)cc(NC(C)CCCN)c2n1.O=C(O)CCC(=O)O (centres undefined) | 0.54 |
| COc1cc(C)c2c(-c3cccc(C)c3)c(OC)cc(NC(C)CCCN)c2n1.O=C(O)CCC(=O)O (centres undefined) | 1.46 |

Attention now turns to another entry.
Query selectivity ratio for COc1cc(NC(C)CCCN)c2nc(C(F)(F)F)cc(C)c2c1-c1cccc(C)c1.O=C(O)CCC(=O)O (centres undefined)
9
